# assayProcedure: chemical genetic growth profiling, strain panel (AID 1159580);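 also: tested at 20 µM; growth read once vehicle control cultures reached saturation at 30 °C; 1 = growth at the plate median or of vehicle wells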
# setupConditions: S. cerevisiae deletion strains, growth OD, locus YLR133W, strain CKI1, stronger effect = lower value
Screen size: about 5,500 compounds; about 2,000 (36%) were called active. Not shown: some 18% with an inconclusive outcome. This is one part of the list.
Labelling field: enter class 1 if recorded normalized growth is less than 0.9. Enter class 0 if it equals or exceeds that cut-off.

Task: Record COc1ccc(/C=C2/C(=O)Nc3ccccc32)cc1 : is its normalized growth strictly below 0.9?
Output: class 1

Task: I wonder whether COc1cc(Br)cc(C=Nc2ccc(Sc3ccccc3)nc2Sc2ccccc2)c1O has normalized growth below 0.9. Can you tell?
Output: class 1

Task: I wonder whether Cc1cc(Cl)ccc1NNC(=O)c1sccc1Br has normalized growth below 0.9. Can you tell?
Output: class 1

Task: Here's an entry: O=C1Nc2ccccc2/C1=C\c1c(Cl)cccc1Cl . Is its normalized growth below 0.9?
Output: class 0

Task: Please determine if c1ccc(-c2nnc(-c3ccccn3)nc2-c2ccccc2)cc1 is below 0.9 in terms of normalized growth.
Output: class 1

Task: Just wondering, is normalized growth of Cc1c(C)c(C)c(C(O)c2ccccc2)c(C)c1C (stereo not given) below 0.9?
Output: class 1

Task: Please state whether normalized growth is below 0.9 for O=C1Nc2ccccc2/C1=C/c1ccc(Oc2ccccc2)nc1
Output: class 1

Task: Hi there! Is normalized growth for O=C1Nc2ccccc2/C1=C\c1ccc(Cl)cc1 below 0.9, do you know?
Output: class 1

Task: Identify whether the molecule O=C1Nc2ccccc2/C1=C\c1cccc([N+](=O)[O-])c1 records normalized growth below 0.9.
Output: class 0

Task: Please indicate whether the reported normalized growth of COc1ccccc1NC(=S)N/N=C\c1ccccc1O is strictly below 0.9.
Output: class 0

Task: Lab note: confirm whether the reported normalized growth for this molecule is below 0.9, equality not counting. molecule: O=S(=O)(CS(=O)(=O)Oc1ccc(Cl)c(Cl)c1)Oc1ccc(Cl)c(Cl)c1
Output: class 0

Task: Hello, I'm reviewing records and need to know if normalized growth of Oc1c(Cl)cc(Cl)cc1C=Nc1ccc(Sc2ccccc2)nc1Sc1ccccc1 is below 0.9. Could you check?
Output: class 1

Task: For O=C1/C(=C/c2ccccn2)CCc2ccccc21 , is the recorded normalized growth below the cut-off of 0.9?
Output: class 0

* * *

# assayProcedure: chemical genetic growth profiling, strain panel (AID 1159580);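 also: tested at 20 µM; growth read once vehicle control cultures reached saturation at 30 °C; 1 = growth at the plate median or of vehicle wells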
# setupConditions: S. cerevisiae deletion strains, growth OD, locus YOL006C, strain TOP1
Hit rate of the full screen: of about 5,500 compounds, about 2,000 (36%) were called active. Inconclusive results (about 18%) are left out. Cut-off read from the data, not from the text of the source: active = normalized growth mostly below about 0.91 (no sharp cut-off); inconclusive = no clear call, values can overlap the other calls; inactive = mostly above about 0.92. This is one part of the list.
Thanks in advance; please answer with one of these: 1 (yes) (active), 0 (no) (inactive)

Task: So what was the verdict on Cn1c2c(c3c1CCCC3)CCCC2 in this test?
Output: 0 (no)

Task: GET /call?item= CCOCN(C(=O)CCl)c1c(C)cccc1CC returns the recorded outcome of this test.
Output: 0 (no)

Task: Test call, this molecule: Cc1cc(OC(=O)c2c(C)cc(OC(=O)c3c(C)cc(O)cc3O)cc2O)cc(O)c1C(=O)O
Output: 0 (no)

Task: # fetch the recorded call for NC(N)=NC(=O)c1nc(Cl)c(N2CCCCCC2)nc1N here
Output: 0 (no)

Task: Tell me the assay call for CC(C)c1c(O)ccc2c1CCC1[C@@](C)(C=O)CCC[C@]21C (some centres not stated) please.
Output: 1 (yes)

Task: Can you look up the reported call for CCc1cc(C(N)=S)ccn1 for me?
Output: 0 (no)

Task: Hello, I am checking results. What call was entered for COc1cccc2c(C)cc(=O)[nH]c12 ?
Output: 1 (yes)

Task: State the result this test recorded for CNC(=O)Oc1cccc2c1OC(C)(C)O2 .
Output: 0 (no)

Task: Hello, I am checking results. What call was entered for CC12CCC3c4ccc(OC(=O)c5ccccc5)cc4CCC3C1CCC2O (configuration not stated) ?
Output: 0 (no)

Task: Write down the call the test reported for this molecule. Item: COc1cc(O)c2c(=O)c(O)c(-c3ccc(O)c(O)c3)oc2c1
Output: 0 (no)

Task: Fill in: this test's call for CC(=O)OCC1=C(C(=O)O)N2C(=O)[C@@H](NC(=O)Cc3cccs3)[C@H]2SC1 is ___
Output: 0 (no)

Task: Just curious, what result did C[C@]12CCC3c4ccc(O)cc4CCC3C1CC[C@@H]2O (some centres not stated) get here?
Output: 0 (no)

Task: State the result this test recorded for O=c1c(O)c(-c2ccc(O)cc2O)oc2cc(O)cc(O)c12 .
Output: 0 (no)

Task: Could you kindly confirm the outcome this assay logged for COC(=O)C1OC(=O)C2OC23C1(C)CCC1C2(C)C(OC(C)=O)CC(OC(C)=O)C(C)(C)C2CC(=O)C13C (configuration not stated) ?
Output: 0 (no)

Task: Called result for Oc1cc2c(cc1O)C1c3ccc(O)c(O)c3OCC1(O)C2 (configuration not stated)
Output: 0 (no)

Task: Record lookup: outcome of this test for CCc1cccc(CC)c1N(COC)C(=O)CCl ?
Output: 0 (no)

Task: Which outcome was entered for the molecule NC(=O)NCCCC(N)C(=O)O (configuration not stated) in this test?
Output: 0 (no)

Task: How was ON=C(c1cccs1)c1cccs1 classified in this test?
Output: 0 (no)

Task: Per the assay record, what outcome was assigned to O=c1c(O)c(-c2ccc(O)c(O)c2)oc2cc(O)cc(O)c12 ?
Output: 0 (no)

Task: Called result for CC(=O)Oc1ccc2c(c1OC(C)=O)OCC1(O)Cc3c(cc(OC(C)=O)c(OC(C)=O)c3OC(C)=O)C21 (configuration not stated)
Output: 0 (no)

Task: GET /call?item= COc1ccccc1Oc1ccc(C(F)(F)F)cc1NC(=O)NC(=O)c1ccccc1F returns the recorded outcome of this test.
Output: 0 (no)

Task: # lookup: test call for O=C1C=C2C(=CCOC2O)O1 (configuration not stated)
Output: 0 (no)

Task: So what was the verdict on COc1ccc2ccc(=O)oc2c1 in this test?
Output: 0 (no)

Task: Answer briefly: the call reported for NS(=O)(=O)c1cc(C2(O)NC(=O)c3ccccc32)ccc1Cl (configuration not stated) in this assay.
Output: 0 (no)

Task: What is the recorded call for this molecule in the test? CCCCCCCCCCCCCCCCCC(=O)OC(CC(=O)O)C[N+](C)(C)C (configuration not stated)
Output: 1 (yes)

Task: Please state the recorded outcome for this molecule: CCOC(=O)N/N=C\c1ccccc1OCC
Output: 0 (no)

Task: For CCC(=O)c1c(O)cc(O)cc1O , which call appears in the assay record?
Output: 0 (no)

Task: Entry CO[C@@]1(NC(=O)C(C(=O)O)c2ccc(O)cc2)C(=O)N2C(C(=O)O)=C(CSc3nnnn3C)CO[C@@H]21 (some centres not stated) : call = ?
Output: 0 (no)

Task: Can you look up the reported call for O=C(Cc1cccs1)NC1C(=O)N2C(C(=O)[O-])=C(C[n+]3ccccc3)CSC12 (configuration not stated) for me?
Output: 0 (no)

Task: Per the records of this test, what outcome belongs to O=c1c(O)c(-c2cc(O)c(O)c(O)c2)oc2cc(O)cc(O)c12 ?
Output: 0 (no)

Task: Assay outcome for OCC(O)C(O)C(O)C(O)C(O)CO (configuration not stated) : what was it?
Output: 0 (no)

Task: Just curious, what result did Cc1cc(OC(=O)c2c(C)cc(O)cc2O)cc(O)c1C(=O)O get here?
Output: 0 (no)

* * *

# assayProcedure: chemical genetic growth profiling, strain panel (AID 1159580);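 also: tested at 20 µM; growth read once vehicle control cultures reached saturation at 30 °C; 1 = growth at the plate median or of vehicle wells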
# setupConditions: S. cerevisiae deletion strains, growth OD, locus YOL147C, strain pex11, stronger effect = lower value
About 2,000 (36%) of roughly 5,500 compounds were called active. Inconclusive results (about 18%) are left out. Some of the results follow.
measuredParameter: normalized growth
The reply should be a number, written without any unit.

Task: Give the measured normalized growth of CCN(Cc1ccncc1)C(=O)C(CO)c1ccccc1 (configuration not stated) .
Output: 0.986

Task: Fill in: normalized growth of C[N+](C)(C)CC(O)CC(=O)O (configuration not stated) is ___
Output: 1.01

Task: Field request: normalized growth | item: CCCCCCCCCCCCCCCCCC(=O)OC(CC(=O)O)C[N+](C)(C)C (configuration not stated)
Output: 0.118

Task: Would you mind telling me what normalized growth value was observed for COc1ccc2c(c1C(C)C)CCC1C(C)(C)C(=O)CCC21C (configuration not stated) ?
Output: 0.975

Task: # get_value(readout='normalized growth', item= CC(C)c1c(O)c(-c2cc3c(c(C(C)C)c2O)CCC2C(C)(C)CCC[C@]32C)cc2c1CCC1C(C)(C)CCC[C@]21C (some centres not stated) )
Output: 1.01

Task: For the compound shown here, CC(=O)OC(C)C[N+](C)(C)C (configuration not stated) , give the reported normalized growth.
Output: 1.02

Task: Any idea what normalized growth was measured for CC(C)c1c(O)ccc2c1CCC1C(C)(C)CCC[C@]21C (some centres not stated) ?
Output: 0.131
